Measured pKd, listed per entry.
- measured_on: T1, PHD2 and PHD3 fingers of human MLL3 (aa 342-439) (human, UniProt Q8NEZ4 342-439)
- T1 construct: PHD2 and PHD3 fingers of human MLL3 (KMT2C), aa 342-439; 15N-labelled for NMR titrations; also used unlabelled as the titrant against MLL3 PHD4; also called MLL3_(PHD2/3); MLL3 PHD2/3; source: E. coli BL21-CodonPlus, purified (glutathione agarose, PreScission cleavage; unlabeled proteins also SEC)
- T1 sequence (looked up): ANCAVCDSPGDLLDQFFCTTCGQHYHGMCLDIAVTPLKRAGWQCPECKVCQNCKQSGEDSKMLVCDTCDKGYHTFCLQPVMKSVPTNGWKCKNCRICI
- assay_details: other fluorescence titration; tryptophan fluorescence, 25 °C; 1.0 µM MLL4 PHD2/3 or MLL3 PHD2/3 with increasing peptide; excitation 295 nm; 20 mM Tris pH 7.2, 150 mM NaCl, 1 mM TCEP, 0.02% Tween20; average of three measurements
- condition_context: both partners purified
Value format note: pKd is -log10 of concentration (mol/L); just state the number.

Worked examples follow.
TLADIKAKAQLVKAQ (peptide, UniProt Q76L83 656-670, looked up, ASXL2, residues 656-670; also called ASXL2_(656-670); ASXL2 (aa 656-670); source: synthetic peptide (SynPeptide)) [ASXL2 peptide, residues 656-670] = 3.88
NRTGARTLADIKAKA (peptide, UniProt Q76L83 650-664, looked up, ASXL2, residues 650-664; also called ASXL2_(650-664); ASXL2 (aa 650-664); source: synthetic peptide (SynPeptide)) [ASXL2 peptide, residues 650-664] = 4.55
RNTGARTLADIKARAQQARAQ (peptide, UniProt Q9C0F0 1047-1067, looked up, ASXL3, residues 1047-1067; also called ASXL3 (aa 1047-1067); source: synthetic peptide (SynPeptide)) [ASXL3 peptide (aa 1047-1067)] = 6.05

Report pKd, nothing else, for this binder: NRTGARTLADIKAKAQLVKAQ (peptide, UniProt Q76L83 650-670, looked up, also called ASXL2 (aa 650-670); MBH of ASXL2; source: synthetic peptide (SynPeptide)) [ASXL2 peptide (residues 650-670 of ASXL2)]
5.85
